# assay.remarks: Antioxidant spin trapping activity assessed as hydroxyl radical adducts formation by Fenton system
# Type: physicochemical
value.kind: Activity

compound: CCCC1(C(N)=O)CCC=[N+]1[O-] (centres undefined)
assay.value: Active
//
compound: CCCCCC1(C(N)=O)CCC=[N+]1[O-] (centres undefined)
assay.value: Active
//
compound: CCCCC1(C(N)=O)CCC=[N+]1[O-] (centres undefined)
assay.value: Active
//
compound: CCC1(C(N)=O)CCC=[N+]1[O-] (centres undefined)
assay.value: Active

All figures here come from ChEMBL document CHEMBL1140030.
